# SYSTEM_TESTED: T1, human SIRPβ1v1, AVI-tagged, biotinylated, monomeric form (human, UniProt O00241 30-371, biotinylated)
# T1 construct: also called huSIRPβ1v1
# MEASUREMENT_NOTES: SPR, captured monomeric antigen
MEASURED_PARAMETER: Kd (pM)
Give just the number in pM; leave the unit off.

Example cases with answers are listed next.
29AM4-5-LALA (IgG1) (antibody, V domains shown, human IgG1 LALA, kappa; also called 29AM4-5huIgG1LALA) VH: EVQLVESGGGLVQPGGSLRLSCAASGFNISYYFIHWVRQAPGKGLEWVASVYSSFGYTYYADSVKGRFTISADTSKNTAYLQMNSLRAEDTAVYYCARFTFPGLFDGFFGAYLGSLDYWGQGTLVTVSS VL: DIQMTQSPSSLSASVGDRVTITCRASQSVSSAVAWYQQKPGKAPKLLIYSASSLYSGVPSRFSGSRSGTDFTLTISSLQPEDFATYYCQQAVNWVGALVTFGQGTKVEIKR: 105
7H9-LALA (7H9 mouse-human chimeric IgG1-kappa, LALA) (antibody, V domains shown) VH: DVQLQESGPGLVKPSQSLSLTCTVTGFSISRGYDWHWIRHFPGNILEWMGYITYSGISNYNPSLKSRISITHDTSKNHFFLRLNSVTAEDTATYYCARGGGAWFTYWGQGTLVTVSA VL: DIVMTQSPATLSVTPGDRVSLSCRASQSISDSLHWYHQKSHESPRLLIKYASQSISGIPSRFSAGGSGSDFTLTINSVEPEDVGVYYCQNGHSLPWTFGGGTKLEIKR: 336

I am curious: what Kd value has been reported for humanized anti-SIRPα antibody 6 (antibody, human IgG1, kappa, L234A L235A, V domains shown, human IgG1 LALA, kappa; also called mAb 6) VH: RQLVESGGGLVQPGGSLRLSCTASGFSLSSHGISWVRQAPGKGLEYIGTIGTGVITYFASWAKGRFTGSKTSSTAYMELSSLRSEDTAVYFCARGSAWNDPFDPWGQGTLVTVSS VL: DIVMTQSPSSLSASVGDRVTITCQASQSVYGNNDLAWYQQKPGQAPKLLIYLASTLATGVPSRFSGSGSGTDFTLTISSLQPEDFATYYCLGGGDDEADNTFGQGTKVEIKR ?
148
